So I've got a bunch of sequences here, and I need their apparent KD of MS2 coat protein values.
- Tested on: MS2 coat protein
- Protocol details: apparent KD of MS2 coat protein; designed switch direction (-1 OFF switch, 1 ON switch): 1; higher = weaker reporter binding
- Conditions used: input ligand: none
Answers without a unit are incomplete; give the number and then its unit.

// apparent KD of MS2 coat protein lookup, key: UAGGGACAUGAGGAUCACCCAUGUGCCUCAUAUGGAGAAACUCAGGAUAUGCUGAGGAUCACCCGGCAGAAGGGAGAUCCGAGG (Eterna round: R96, puzzle: Same State NG 3)
53.4 nM

Recorded apparent KD of MS2 coat protein for GGGAGAGACGUAGGAUAUGGAAGAAGAUAGAGACUAGAAGGGUGAACAUGAGAAUCGAAGUGUAAAGUGAGAUGAGGUGGGAGA [iteri-1] (Eterna round: R96, puzzle: Same State NG 1) , please?
36.9 nM

Quick one: apparent KD of MS2 coat protein of CUCAACAACACAGGAUAUCCAGGUAAAAGACCUGGAGAAGGGUGACCAACAUGAGGAUCACCCAUGUGACAGCCAGGCUGUCUG [Isbitiqu] (Eterna round: R96, puzzle: Same State NG 1) ?
371 nM

====

- Test system: MS2 coat protein
- Protocol details: apparent KD of MS2 coat protein, switch OFF state (with FMN for OFF switches, without FMN for ON switches); designed switch direction (-1 OFF switch, 1 ON switch): -1; higher = weaker reporter binding
- Conditions used: FMN input: 0 or 200 uM; Eterna round: R93 (includes R88 designs)
Label Met when apparent KD of MS2 coat protein is at or above 40 nM; otherwise label Not met.

Is the recorded value of apparent KD of MS2 coat protein equal to or greater than 40 nM for this sequence? GGUUGGCGAGGAUAUACAUGAGGAUCACCCAUGUGAGAGAAUAAAGUGAGAAAGAAAAGUAGAAGGCGCUGACG [salish99-ex3-44]
Met

Check this sequence for apparent KD of MS2 coat protein at or above 40 nM: AAUGCGGCAGGAUAUACAUGAGGAUCACCCAUGUACAUCAGAUAUAUGGUCGAACCAUGUAGAAGGGCCGCAAA [Ex 3May 57]
Met

Check if apparent KD of MS2 coat protein >= 40 nM (inclusive). Item: AGAAAACAUGAGGAUCACCCAUGUCAGGAUAUGUAAAAGAAAAGAAAAGAAAGAAGAAGCAGAAGGGACAAGAA [Sekhemkhet]
Not met

# check: apparent KD of MS2 coat protein of AAAAAGUUAGGAUAUACAUGAGGAUCACCCAUGUACAUAUAUGGAGAAUAUAGUAGUAGUAGAAGGGACAAAAA [EX2 Malc#14] is greater than or equal to 40 nM
Not met

Would you say AGCAAGUGAGGAUAUGCGAAGUCAGGACACACACUGACGAAGCAGAAGGCACAUGAGGAUCACCCAUGUAAGCA [JR_Exclusion-4 65% 1] shows apparent KD of MS2 coat protein at minimum 40 nM?
Not met

apparent KD of MS2 coat protein >= 40 nM for AAAAAGCGAGGAUAUACAUAGCUAAGACGUGUGAGCGAAAAACAUGAGGAUCACCCAUGUAGAAGGCGCAAAAA [Exclusion2-03] ?
Not met

Record AAAGGACGAGGAUAUACAUGAGGAUCACCCAUGUAAAGGGCAUAAUAAAAGAACUUAUGUAGAAGGCGUCCAAA [69%, Moding Meechl, 6] ; criterion: apparent KD of MS2 coat protein no lower than 40 nM. Met?
Not met

====

Can you tell me apparent KD of K4 kissing-loop reporter for the items I'm about to list?
- Test system: K4 kissing-loop RNA reporter
- Protocol details: apparent KD of K4 kissing-loop reporter; higher = weaker reporter binding
- Conditions used: Eterna round: R107; input ligand: none
Expressed in µM, but write only the number.

Form field: apparent KD of K4 kissing-loop reporter recorded for UGUCAUGGAAACAUGAACGUUAAAAUAAAUCGAGGACCGGUACGGCCGCCACUCGUAUAGCGGUCAGUGAUGUUGACUGUAGUAC [KL-SSTryp-A form2 sub11 #dotplot2>1] with K4 kissing-loop RNA reporter (enter value)
0.109

Form field: apparent KD of K4 kissing-loop reporter recorded for UGUUUUUACUGAAGGAGCGGCAAUUGAUACGUAGAUAUAGUGAUGUUAUAUAAGAUAGAGAGCCAGGUAGGUCGCAGAUUUUUUC [ExArgB.Y] with K4 kissing-loop RNA reporter (enter value)
0.164

Write down the reported apparent KD of K4 kissing-loop reporter of GGAUAGGAUAGAGGAUAUGGCUUACGCAGAAAUAACUUAUUGUGUAAAUCCAUAGGGAGUGAUGUUCCAGAAGGCUGUCCUAUCG [MatMod 17 - Jieux - Exclusion - FMN B] , test system: K4 kissing-loop RNA reporter.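 Further: bound reporter read as fluorescence of individual clusters on recovered sequencing chips by microscopy, with normalized cluster intensities fitted with a binding model.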
0.251

Field: apparent KD of K4 kissing-loop reporter (K4 kissing-loop RNA reporter). Entry: GCGCAUGUUAAAGGAUAUAGCAGGUGAUACAAGAAAGUGAGUGAUGUUUAUGUAGAUGAUGAUAUGUUAGAAGGUUAACAAGCGC [abcdefghijklmnop]
0.842

Hello, I am looking for reported apparent KD of K4 kissing-loop reporter with K4 kissing-loop RNA reporter for AGAGUCGGCUGUGAUACCAGUCGUAUUACAACAUGUCGCAGUGAUGUUGCGAGAUAGGAUGACCCUUGGCAGCACUCAGUACGAU [Same State Theophylline B GF 8] . Could you help?
0.421

So what apparent KD of K4 kissing-loop reporter did AUGUACAUUCUCAGUGAUGUUGGGUUGUAACGAGGACCGGUACGGCCGCCACUCGGGAUGUGGUAUAUAGAUGUAUGUGUAGCAU [skye_SS_TA] get with K4 kissing-loop RNA reporter?
0.446

====

Task for the reader: assign each of the following sequences its reported apparent KD of MS2 coat protein.
- Tested on: MS2 coat protein
- Protocol details: apparent KD of MS2 coat protein; designed switch direction (-1 OFF switch, 1 ON switch): -1; higher = weaker reporter binding
- Conditions used: input ligand: FMN 200 uM
Answer with a number only, understood to be in µM.

Can you share its apparent KD of MS2 coat protein? I mean this sequence: AUAAGUGAUAAGGAUAUUACUAGCCUCGGCUAGUGAGAAGGUAUCACAUGAGGAUCACCCAUGUGUUCCAAUAA [Ex6/7-B2] (Eterna round: R97, puzzle: Exclusion 6)
0.297

Please give the measured apparent KD of MS2 coat protein for this sequence: AGCAAGUCAGGAUAUCAAAGCAGCUAUAUGCUGCCCGGGCUUGAGAAGGGACUUGAGGAUCACCCAAGUGAUAG [Titiar] (Eterna round: R97, puzzle: Exclusion 4)
0.101

Field request: apparent KD of MS2 coat protein | item: AAAGAUCAAGGAUAUGCAACGGCACACAUGAGGAUCACCCAUGUGAUGUACGUUGUGUCGGCAGAAGGUGAGGGUC [JR_Ex5_Sub056] (Eterna round: R97, puzzle: Exclusion 5)
0.0138

# query: apparent KD of MS2 coat protein of entry ACCAUGUAAGGAUAUGGUGGCUGUGAACAGGCCUGAUAAAUCUAGAAGGUACAUGAGGAUCACCCAUGUGAUGA [Eternabot (L2) Solution 84] (Eterna round: R97, puzzle: Exclusion 4)
0.054

Recorded apparent KD of MS2 coat protein for CUGCUCCGUGUAGGAUAUGCAUACUCCCAUUAUGCAGAAGGACAUGAGGAUCACCCAUGUAUGUUAUUAUCAUGUGUUGCAUGC [Design 11] (Eterna round: R96, puzzle: Exclusion NG 1) , please?
0.164

====

- Tested on: MS2 coat protein
- Protocol details: apparent KD of MS2 coat protein; designed switch direction (-1 OFF switch, 1 ON switch): -1; higher = weaker reporter binding
- Conditions used: Eterna round: R95; input ligand: FMN 200 uM
Classification field: enter 1 for apparent KD of MS2 coat protein values not below 20 nM, -1 for values below it.

Check if apparent KD of MS2 coat protein >= 20 nM (inclusive). Item: CGUAGUCUUCGGACUACGAACAUGAGGAUCACCCAUGUAAUGAGCAGAUCCUCAUGCAAGCUUUUUGCUCGUCUUAU [Sensor v3 - turn-off variant 1 - 46] (puzzle: Sensor v3, turn-off variant 1)
-1

Could you verify whether the entry AGUACUAACACGAAAGUGUUAGUACAAUAAGCUUGUGGAACAUGAGGAUCACCCAUGUCCUCAUAAGCUCGUCUUAU [JL-sv3-2.12 mat747 mod] (puzzle: Sensor v3, turn-off variant 2) shows apparent KD of MS2 coat protein of no less than 20 nM?
-1

# check: apparent KD of MS2 coat protein of CAAAAGGUAGGAUAUACGAAAAAAAAGGGUAGAAAAAAAACACAUGAGGAUCACCCAUGUAGAAGGACCAAAAA [salish99_ex2_r3_055] (puzzle: Exclusion 2) is greater than or equal to 20 nM
1

Form field: apparent KD of MS2 coat protein at least 20 nM? Entry: AAAAGUUAAGGAUAUACAGGGAGCCGCGGCGUCUGGCCGCAACAUGAGGAUCACCCAUGUAGAAGGUAGCCAAA [Maatmaso] (puzzle: Exclusion 2)
1
